All values here come from patent US20260356824A1.

- testDetails: Liver microsomal stability, rat
- Assay type: in vitro ADME
- conditions: rat liver microsomes; 30 min; percent of parent remaining; read-out: Liver Microsomal stability (%), % of remaining after 30 min, Rat
quantity: remaining at 0.5 h

[
  {
    "molecule": "CCCN(C)C(=O)OCc1c(C)noc1C1CCN(c2ccc(C3(C(=O)NS(=O)(=O)C(F)(F)F)CC3)cc2)CC1 [Compound 13]",
    "quantity": "remaining at 0.5 h",
    "result": "50 to 75%"
  },
  {
    "molecule": "CNS(=O)(=O)NC(=O)C1(c2ccc(N3CCC(c4onc(C)c4NC(=O)O[C@H](C)c4ccccc4)CC3)cc2)CC1 [Compound 86]",
    "quantity": "remaining at 0.5 h",
    "result": "> 75%"
  },
  {
    "molecule": "Cc1noc(C2CCN(c3ccc(C4(C(=O)NS(=O)(=O)CCCC(=O)O)CC4)cc3)CC2)c1NC(=O)O[C@H](C)c1ccccc1 [Compound 84]",
    "quantity": "remaining at 0.5 h",
    "result": "> 75%"
  },
  {
    "molecule": "Cc1noc(C2CCN(c3ccc(C4(C(=O)NS(=O)(=O)C(C)(C)CO)CC4)cc3)CC2)c1NC(=O)O[C@H](C)c1ccccc1 [Compound 70]",
    "quantity": "remaining at 0.5 h",
    "result": "> 75%"
  },
  {
    "molecule": "Cc1noc(C2CCN(c3ccc(C4(C(=O)NS(=O)(=O)CC(=O)O)CC4)cc3)CC2)c1NC(=O)O[C@H](C)c1ccccc1 [Compound 80]",
    "quantity": "remaining at 0.5 h",
    "result": "50 to 75%"
  },
  {
    "molecule": "Cc1noc(C2CN(c3ccc(C4(C(=O)O)CC4)cc3)C2)c1NC(=O)O[C@H](C)c1ccccc1 [Compound 23]",
    "quantity": "remaining at 0.5 h",
    "result": "> 75%"
  }
]

* * *

Each item that follows carries a reported remaining at 0.5 h.
- testDetails: Liver microsomal stability, human
- Format: in vitro ADME
- conditions: human liver microsomes; 30 min; percent of parent remaining; read-out: Liver Microsomal stability (%), % of remaining after 30 min, Human
quantity: remaining at 0.5 h

[
  {
    "compound": "Cc1noc(C2CN(c3ccc(C4(C(=O)O)CC4)cc3)C2)c1NC(=O)O[C@H](C)c1ccccc1 [Compound 23]",
    "result": "> 75%"
  },
  {
    "compound": "Cc1noc(C2CCN(c3ccc(C4(C(=O)NS(=O)(=O)CCC(=O)O)CC4)cc3)CC2)c1NC(=O)O[C@H](C)c1ccccc1 [Compound 83]",
    "result": "> 75%"
  },
  {
    "compound": "Cc1noc(C2CCN(c3ccc(C4(C(=O)NS(C)(=O)=O)CC4)cc3)CC2)c1NC(=O)O[C@H](C)c1ccccc1 [Compound 12]",
    "result": "> 75%"
  },
  {
    "compound": "Cc1noc(C2CCN(c3ccc(C4(C(=O)O)CC4)cc3)CC2)c1N[C@H](C)CCc1ccccc1 [Compound 22]",
    "result": "50 to 75%"
  },
  {
    "compound": "Cn1nnc(C2CCN(c3ccc(C4(C(=O)O)CC4)cc3)CC2)c1Nc1cccc(-c2ccccc2)n1 [Compound 6]",
    "result": "> 75%"
  },
  {
    "compound": "Cc1noc(C2CCN(c3ccc(C4(c5cc(O)no5)CC4)cc3)CC2)c1NC(=O)O[C@H](C)c1ccccc1 [Compound 64]",
    "result": "50 to 75%"
  },
  {
    "compound": "Cc1noc(C2CCN(c3ccc(C4(C(=O)NS(=O)(=O)CC(=O)O)CC4)cc3)CC2)c1NC(=O)O[C@H](C)c1ccccc1 [Compound 80]",
    "result": "> 75%"
  },
  {
    "compound": "Cc1nsc(C2CCN(c3ccc(C4(C(=O)NS(=O)(=O)C(F)(F)F)CC4)cc3)CC2)c1NC(=O)O[C@H](C)c1ccccc1 [Compound 94]",
    "result": "50 to 75%"
  },
  {
    "compound": "Cc1noc(N2CCC(c3ccc(C4(C(=O)O)CC4)cc3)CC2)c1NC(=O)O[C@H](C)c1ccccc1 [Compound 8]",
    "result": "50 to 75%"
  },
  {
    "compound": "Cc1noc(C2CCN(c3ccc(C4(C(=O)NS(=O)(=O)CCCO)CC4)cc3)CC2)c1NC(=O)O[C@H](C)c1ccccc1 [Compound 85]",
    "result": "> 75%"
  }
]

* * *

- assaySystem: hLPAR1 (Homo sapiens)
- Sequence (Q92633 whole entry): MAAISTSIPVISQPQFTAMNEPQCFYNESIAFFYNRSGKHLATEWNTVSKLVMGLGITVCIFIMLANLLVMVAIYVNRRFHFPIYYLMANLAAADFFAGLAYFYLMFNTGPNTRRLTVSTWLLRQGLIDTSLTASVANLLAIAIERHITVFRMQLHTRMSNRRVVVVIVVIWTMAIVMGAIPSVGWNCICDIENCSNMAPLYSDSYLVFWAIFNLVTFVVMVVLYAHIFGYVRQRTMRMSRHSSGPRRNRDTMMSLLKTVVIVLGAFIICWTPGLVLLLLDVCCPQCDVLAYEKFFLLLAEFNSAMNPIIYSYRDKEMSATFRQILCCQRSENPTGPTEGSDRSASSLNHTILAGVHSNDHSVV
- testDetails: Ca2+ Flux Assay (B103 cells stably expressing hLPAR1)
- conditions: LPA-induced calcium release, Fura-2 AM, compound 20 min at RT
quantity: IC50

[
  {
    "molecule": "C[C@@H](OC(=O)Nc1c(C2CCN(c3ccc(C4(C(=O)NS(=O)(=O)C5(C(=O)O)CC5)CC4)cc3)CC2)nnn1C)c1ccccc1 [Compound 57]",
    "result": "< 10 nM"
  },
  {
    "molecule": "C[C@@H](OC(=O)Nc1cccnc1C1CCN(c2ccc(C3(C(=O)O)CC3)cc2)CC1)c1ccccc1 [Compound 28]",
    "result": "10 to 200 nM"
  },
  {
    "molecule": "Cc1noc(C2CCN(c3ccc(C4(C(=O)NS(=O)(=O)CC5(C)COC5)CC4)cc3)CC2)c1NC(=O)O[C@@H](C)c1ccccc1 [Compound 81]",
    "result": "< 10 nM"
  },
  {
    "molecule": "Cc1noc(C2CN(c3ccc(C4(C(=O)O)CC4)cc3)C2)c1NC(=O)O[C@H](C)c1ccccc1 [Compound 23]",
    "result": "10 to 200 nM"
  },
  {
    "molecule": "CNS(=O)(=O)NC(=O)C1(c2ccc(N3CCC(c4onc(C)c4NC(=O)O[C@H](C)c4ccccc4)CC3)cc2)CC1 [Compound 86]",
    "result": "< 10 nM"
  },
  {
    "molecule": "Cc1ccccc1[C@@H](C)OC(=O)Nc1c(C)nsc1C1CCN(c2ccc(C3(C(=O)O)CC3)cc2)CC1 [Compound 36]",
    "result": "< 10 nM"
  },
  {
    "molecule": "C[C@@H](OC(=O)Nc1ccsc1C1CCN(c2ccc(C3(C(=O)O)CC3)cc2)CC1)c1ccccc1 [Compound 93]",
    "result": "10 to 200 nM"
  }
]

* * *

- assaySystem: BSEP (Homo sapiens, UniProt O95342)
- Construct: ATP-dependent uptake of radiolabelled probe substrate
- Sequence (O95342 whole entry): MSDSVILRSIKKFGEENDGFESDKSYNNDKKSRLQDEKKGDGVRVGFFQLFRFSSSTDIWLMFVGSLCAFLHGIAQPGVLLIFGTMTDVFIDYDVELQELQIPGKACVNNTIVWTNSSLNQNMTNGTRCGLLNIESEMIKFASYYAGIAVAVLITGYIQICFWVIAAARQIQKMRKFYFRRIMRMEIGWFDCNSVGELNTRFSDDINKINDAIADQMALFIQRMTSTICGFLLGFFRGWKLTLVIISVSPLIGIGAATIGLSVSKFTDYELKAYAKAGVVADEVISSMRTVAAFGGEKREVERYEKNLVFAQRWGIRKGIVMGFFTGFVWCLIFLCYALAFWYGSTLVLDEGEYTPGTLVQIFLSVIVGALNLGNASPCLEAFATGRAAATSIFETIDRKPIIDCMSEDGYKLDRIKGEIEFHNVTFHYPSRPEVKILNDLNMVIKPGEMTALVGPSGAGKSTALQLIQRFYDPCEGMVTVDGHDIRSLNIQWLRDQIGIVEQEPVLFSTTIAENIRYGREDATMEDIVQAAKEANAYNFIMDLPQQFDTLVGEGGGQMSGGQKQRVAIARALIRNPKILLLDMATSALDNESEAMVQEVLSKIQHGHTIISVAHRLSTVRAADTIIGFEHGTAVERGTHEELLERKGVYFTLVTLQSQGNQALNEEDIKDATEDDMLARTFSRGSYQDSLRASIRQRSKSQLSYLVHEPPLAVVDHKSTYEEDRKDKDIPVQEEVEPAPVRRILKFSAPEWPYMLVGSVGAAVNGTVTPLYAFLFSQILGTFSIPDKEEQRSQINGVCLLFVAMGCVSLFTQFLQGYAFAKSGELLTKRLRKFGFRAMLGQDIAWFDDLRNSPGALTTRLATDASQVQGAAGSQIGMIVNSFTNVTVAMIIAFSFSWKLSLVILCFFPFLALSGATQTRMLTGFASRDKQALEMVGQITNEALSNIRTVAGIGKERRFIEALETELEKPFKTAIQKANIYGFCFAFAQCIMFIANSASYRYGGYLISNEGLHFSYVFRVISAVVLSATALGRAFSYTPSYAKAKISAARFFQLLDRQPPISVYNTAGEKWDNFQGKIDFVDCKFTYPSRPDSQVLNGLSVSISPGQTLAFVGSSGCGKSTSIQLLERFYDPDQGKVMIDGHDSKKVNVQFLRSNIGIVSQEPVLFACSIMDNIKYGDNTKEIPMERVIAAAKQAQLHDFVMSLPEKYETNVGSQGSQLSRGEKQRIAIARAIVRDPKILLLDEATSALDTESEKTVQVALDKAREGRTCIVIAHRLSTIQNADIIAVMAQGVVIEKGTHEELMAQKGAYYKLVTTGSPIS
- testDetails: Bile Salt Export Pump (BSEP) Assay, Sf9 insect cell vesicles expressing BSEP
- Assay type: in vitro ADME
- conditions: 10 μM test compound, probe substrate 1 μM [3H]-taurocholic acid, 15 min incubation

[
  {
    "compound": "Cc1ccccc1[C@@H](C)OC(=O)Nc1c(C)noc1C1CC2(C1)CN(c1ccc(C3(C(=O)O)CC3)cc1)C2",
    "inhibition at 0.25 h, 10 µM": "75 to 100%"
  },
  {
    "compound": "Cc1noc(C2CCN(c3ccc(C4(C(=O)NS(=O)(=O)C(C)CC(=O)O)CC4)cc3)CC2)c1NC(=O)O[C@H](C)c1ccccc1 (stereo partly drawn)",
    "inhibition at 0.25 h, 10 µM": "≤ 25%"
  },
  {
    "compound": "COc1cc(C2(C(=O)O)CC2)ccc1N1CCC(c2onc(C)c2NC(=O)O[C@H](C)c2ccccc2)CC1",
    "inhibition at 0.25 h, 10 µM": "≤ 25%"
  },
  {
    "compound": "Cc1cc(C2(C(=O)O)CC2)ccc1N1CCC(c2onc(C)c2NC(=O)O[C@H](C)c2ccccc2)CC1",
    "inhibition at 0.25 h, 10 µM": "50 to 75%"
  },
  {
    "compound": "Cc1noc(C2CCN(c3ccc(C4(C(=O)NS(=O)(=O)CCC(=O)O)CC4)cc3)CC2)c1NC(=O)O[C@H](C)c1ccccc1",
    "inhibition at 0.25 h, 10 µM": "≤ 25%"
  },
  {
    "compound": "Cc1noc(C2CC3(C2)CN(c2ccc(C4(C(=O)O)CC4)cc2)C3)c1NC(=O)O[C@H](C)c1ccccc1",
    "inhibition at 0.25 h, 10 µM": "25 to 50%"
  }
]
